System: CP217
Experiment: qHTS profiling for inhibitors of Plasmodium falciparum proliferation (AID 504749); also: nearly all actives have a fitted effect of over 60% in size
Details: P. falciparum in erythrocytes, SYBR Green DNA, 72 h; series mostly up to 28.7 µM
Inconclusive results are not listed. Active and inactive are the calls of the source. Calls follow the shape of the dose curve; as a rule, active = well fitted inhibition curve with a large enough effect; inconclusive = small, poorly fitted or top-dose-only effect; inactive = flat fitted curve, though single readings scatter.
Returns: one label drawn from 1 for active, 0 for inactive

> print(dat)
                                   compound  discrete.label
1             O=C(O)[C@@H](S)[C@H](S)C(=O)O               1
2  Cc1onc(-c2c(F)cccc2Cl)c1C(=O)N[C@@H]1C(=O)N2[C@H]1SC(C)(C)[C@H]2C(=O)O               0
3  CC(C)(C)c1ccc(CN2CCN([C@H](c3ccccc3)c3ccc(Cl)cc3)CC2)cc1               1
4  C[N+]1(C)[C@@H]2CC(OC(=O)[C@@H](CO)c3ccccc3)C[C@@H]1[C@H]1O[C@H]12 (stereo partly specified)               0
5                              OC[C@H](S)CS               0

Could you now consider this next compound?
[in] Check the results log: what was the call for `O=C(O)[C@@H](O)[C@@H](O)[C@H](O)C(=O)CO` ?
[out] 0

###

Biological target: Ubiquitin carboxyl-terminal hydrolase 1 (Homo sapiens) (UniProt O94782)
Sequence (O94782 whole entry, looked up): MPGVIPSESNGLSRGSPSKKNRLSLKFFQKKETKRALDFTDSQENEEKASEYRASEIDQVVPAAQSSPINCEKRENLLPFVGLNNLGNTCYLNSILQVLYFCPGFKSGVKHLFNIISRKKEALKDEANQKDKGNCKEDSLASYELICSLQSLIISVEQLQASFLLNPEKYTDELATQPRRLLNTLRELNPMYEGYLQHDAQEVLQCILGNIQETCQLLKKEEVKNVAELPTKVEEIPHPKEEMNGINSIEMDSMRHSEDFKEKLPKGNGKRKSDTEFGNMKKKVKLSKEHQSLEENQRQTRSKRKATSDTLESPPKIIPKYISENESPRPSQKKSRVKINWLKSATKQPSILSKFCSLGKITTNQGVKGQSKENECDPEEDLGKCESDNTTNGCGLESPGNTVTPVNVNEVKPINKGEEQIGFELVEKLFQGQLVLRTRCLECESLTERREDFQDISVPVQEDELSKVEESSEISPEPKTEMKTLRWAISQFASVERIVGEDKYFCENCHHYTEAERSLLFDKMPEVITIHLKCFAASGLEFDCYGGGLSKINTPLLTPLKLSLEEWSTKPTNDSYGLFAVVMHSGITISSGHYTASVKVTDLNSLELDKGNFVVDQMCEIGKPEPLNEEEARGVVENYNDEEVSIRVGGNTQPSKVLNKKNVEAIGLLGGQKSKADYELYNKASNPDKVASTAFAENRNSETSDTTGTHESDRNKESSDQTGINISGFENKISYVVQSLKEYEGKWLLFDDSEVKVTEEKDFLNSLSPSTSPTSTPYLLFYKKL
Assay: Inhibitors of USP1/UAF1: Pilot qHTS (AID 504865); also: nearly all actives have a fitted effect of over 35% in size
Conditions: purified USP1/UAF1, Ub-rhodamine cleavage fluorescence; series mostly up to 114 µM
Inconclusive results are not listed. The source made the active and inactive calls. Calls follow the shape of the dose curve; as a rule, active = well fitted inhibition curve with a large enough effect; inconclusive = small, poorly fitted or top-dose-only effect; inactive = flat fitted curve, though single readings scatter.
Returns: one label drawn from active, inactive

Use the examples below as a reference point.
> print(dat)
                                   compound                         target.under.test  discrete.label
1   O=C(O)[C@@H](O)[C@@H](O)[C@H](O)C(=O)CO  Ubiquitin carboxyl-terminal hydrolase 1 (Homo sapiens) (UniProt O94782)        inactive
2           CNc1ncncc1-c1ccc(C(=O)N(C)C)cc1  Ubiquitin carboxyl-terminal hydrolase 1 (Homo sapiens) (UniProt O94782)        inactive
3  C[N+]1(C)[C@@H]2CC(OC(=O)[C@@H](CO)c3ccccc3)C[C@@H]1[C@H]1O[C@H]12 (some centres not stated)  Ubiquitin carboxyl-terminal hydrolase 1 (Homo sapiens) (UniProt O94782)        inactive
4  Cc1onc(-c2c(F)cccc2Cl)c1C(=O)N[C@@H]1C(=O)N2[C@H]1SC(C)(C)[C@H]2C(=O)O  Ubiquitin carboxyl-terminal hydrolase 1 (Homo sapiens) (UniProt O94782)        inactive
5  COc1cccc2c1C(=O)c1c(O)c3c(c(O)c1C2=O)C[C@](O)(C(=O)CO)C[C@@H]3O[C@H]1C[C@H](N)[C@@H](O)[C@H](C)O1  Ubiquitin carboxyl-terminal hydrolase 1 (Homo sapiens) (UniProt O94782)        inactive

[in] Check the results log: what was the call for `COc1ccccc1-c1nc(NCc2ccccc2)c2ccccc2n1` ?
[out] active

[in] Check the results log: what was the call for `OC[C@H](S)CS` ?
[out] inactive

###

Tested on: CP247
Assay: qHTS profiling for inhibitors of Plasmodium falciparum proliferation (AID 504749); also: nearly all actives have a fitted effect of over 60% in size
Settings: P. falciparum in erythrocytes, SYBR Green DNA, 72 h; series mostly up to 28.7 µM
Records with an inconclusive call do not appear. Activity calls are given as the source filed them. Calls come from the whole dose curve; as a rule, active = well fitted inhibition curve with a large enough effect; inconclusive = small, poorly fitted or top-dose-only effect; inactive = flat fitted curve, though single readings scatter.
Returns: one label drawn from true = active, false = inactive

> print(dat)
              structure.notation  discrete.label
1  O=C(O)[C@@H](S)[C@H](S)C(=O)O            true

[in] Check the results log: what was the call for `C[C@H](CCC(=O)O)[C@H]1CC[C@@H]2[C@H]3[C@@H](C[C@@H](O)[C@]21C)[C@]1(C)CC[C@H](O)C[C@@H]1C[C@@H]3O` ?
[out] false

[in] Check the results log: what was the call for `C[C@]12CC[C@H]3c4ccc(O)cc4CC[C@@H]3[C@H]1CC[C@@H]2OP(=O)(O)O` ?
[out] false

[in] Check the results log: what was the call for `C[C@@H]1C[C@H]2[C@H]3C[C@@H](F)C4=CC(=O)C=C[C@]4(C)[C@@]3(Cl)[C@@H](O)C[C@@]2(C)[C@@H]1C(=O)COC(=O)C(C)(C)C` ?
[out] false

[in] Check the results log: what was the call for `O=C(O)[C@@H](O)[C@@H](O)[C@H](O)C(=O)CO` ?
[out] false

[in] Check the results log: what was the call for `OC[C@H](S)CS` ?
[out] false

[in] Check the results log: what was the call for `COc1cc2nc(N(C)CCCNC(=O)[C@@H]3CCCO3)nc(N)c2cc1OC` ?
[out] false

[in] Check the results log: what was the call for `CC1(C)[C@@H]2CC[C@]1(C)[C@@H](OC(=O)CSC#N)C2` ?
[out] false

[in] Check the results log: what was the call for `C[C@]12CC[C@H]3c4ccc(O)cc4CC[C@@H]3[C@H]1CC[C@@H]2OC(=O)CCC1CCCC1` ?
[out] false

[in] Check the results log: what was the call for `CC(=O)N1CCN(c2ccc(OC[C@@H]3CO[C@@](Cn4ccnc4)(c4ccc(Cl)cc4Cl)O3)cc2)CC1` ?
[out] false
